Measured Survival of individual entries
test system: Mus musculus; test: Survival of Plasmodium berghei GFP infected mice (Mus musculus) at 10 mg/kg, subcutaneous after single dose; assay type: functional

compound	Survival
C[C@H]1[C@H](OC(=O)CCC(=O)O)O[C@@H]2O[C@@]3(C)CC[C@H]4[C@H](C)CC[C@@H]1[C@@]24OO3 [ARTESUNATE]	8.6 days
C[C@H]1[C@@H](CC(C[C@H]2O[C@H]3O[C@@]4(C)CC[C@H]5[C@H](C)CC[C@@H]([C@H]2C)[C@@]35OO4)C(=O)NNC(=O)c2ccncc2)O[C@@H]2O[C@@]3(C)CC[C@H]4[C@H](C)CC[C@@H]1[C@@]24OO3 (some centres undefined)	10 days
C[C@H]1[C@@H](CC(CNc2ccccc2)C[C@H]2O[C@@H]3O[C@@]4(C)CC[C@H]5[C@H](C)CC[C@@H]([C@H]2C)[C@@]35OO4)O[C@@H]2O[C@@]3(C)CC[C@H]4[C@H](C)CC[C@@H]1[C@@]24OO3 (some centres undefined)	12.3 days
C[C@H]1[C@@H](CC(C[C@H]2O[C@H]3O[C@@]4(C)CC[C@H]5[C@H](C)CC[C@@H]([C@H]2C)[C@@]35OO4)C(=O)NC(C)(C)C)O[C@@H]2O[C@@]3(C)CC[C@H]4[C@H](C)CC[C@@H]1[C@@]24OO3 (some centres undefined)	25.3 days
